- assayed_target: T1, human ROR2 extracellular domain (ROR2 ECD recombinant protein) (human, UniProt Q01974 34-403)
- T1 construct: also called human ROR2-ECD; hROR2-ECD
- T1 sequence (Q01974 34-403): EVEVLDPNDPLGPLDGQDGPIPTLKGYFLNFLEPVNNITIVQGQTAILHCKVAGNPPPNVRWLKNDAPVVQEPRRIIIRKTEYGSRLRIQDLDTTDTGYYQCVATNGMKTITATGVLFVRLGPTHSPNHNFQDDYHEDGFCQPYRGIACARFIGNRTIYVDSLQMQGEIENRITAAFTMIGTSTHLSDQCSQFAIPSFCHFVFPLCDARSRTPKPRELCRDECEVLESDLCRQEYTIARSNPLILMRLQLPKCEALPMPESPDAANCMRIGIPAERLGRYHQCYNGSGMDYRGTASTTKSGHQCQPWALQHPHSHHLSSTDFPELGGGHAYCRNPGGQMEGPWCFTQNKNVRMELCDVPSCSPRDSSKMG
- method_description: kinetic binding analysis, full length IgG1 on human ROR2-ECD
measurement_type: Kd

# binder, measured
rows = [
    ("ROR2-23 full length human IgG1 antibody (antibody, V domains shown, The light chain of clone 023 is labelled kappa; also called clone #23; clone #023 IgG1) VH: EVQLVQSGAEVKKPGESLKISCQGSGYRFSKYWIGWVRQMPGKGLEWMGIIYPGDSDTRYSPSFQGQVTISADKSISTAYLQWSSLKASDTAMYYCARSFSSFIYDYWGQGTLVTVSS VL: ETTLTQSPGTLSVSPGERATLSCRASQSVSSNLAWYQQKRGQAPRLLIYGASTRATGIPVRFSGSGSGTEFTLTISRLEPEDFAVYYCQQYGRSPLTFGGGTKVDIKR", "0.164 nM"),
]

Data origin, for the record: patent US20180127503A1
